inhibition for assorted compounds
- TARGET: Solute carrier family 2, facilitated glucose transporter member 1 (Homo sapiens)
- TEST_DETAILS: ST_JUDE_LEISH: Cytotoxicity at 2uM final concentration against transgenic Leishmania Mexicana promastigotes LmGLUT1 that are glucose transport deficient and complemented with the human glucose transporter GLUT1. Activity is measured by DNA content using SYBR green in vitro
- Format: functional
Kindly answer with a numeric value in %, unit omitted.

// solved cases for inhibition follow
>  <COMPOUND>
CCN(CC)CCNc1c2ccc(Cl)cc2nc2ccc(OC)nc12

>  <TARGET>
Solute carrier family 2, facilitated glucose transporter member 1 (Homo sapiens)

>  <MEASUREMENT_NAME>
inhibition

>  <EXPERIMENTAL_RESULT>
3.46

$$$$
>  <COMPOUND>
COc1ccc2nccc([C@@H](O)CN3C4CCC3CC(NCc3ccc5c(n3)NC(=O)CS5)C4)c2n1 (stereo partly drawn)

>  <TARGET>
Solute carrier family 2, facilitated glucose transporter member 1 (Homo sapiens)

>  <MEASUREMENT_NAME>
inhibition

>  <EXPERIMENTAL_RESULT>
1.63

$$$$
>  <COMPOUND>
CC1CCCN1Cc1cccc(-c2ccc(C(=O)NCCOc3ccccc3)s2)c1 (stereo not drawn)

>  <TARGET>
Solute carrier family 2, facilitated glucose transporter member 1 (Homo sapiens)

>  <MEASUREMENT_NAME>
inhibition

>  <EXPERIMENTAL_RESULT>
72

$$$$
>  <COMPOUND>
Fc1cccc(COc2ccc(Nc3ncnc4sc(C#C[C@H]5CC[C@H](CNCC(F)(F)F)N5)cc34)cc2Cl)c1

>  <TARGET>
Solute carrier family 2, facilitated glucose transporter member 1 (Homo sapiens)

>  <MEASUREMENT_NAME>
inhibition

>  <EXPERIMENTAL_RESULT>
1.63

$$$$
>  <COMPOUND>
CC(=O)Nc1ccc(Nc2c3ccccc3nc3ccccc23)cc1

>  <TARGET>
Solute carrier family 2, facilitated glucose transporter member 1 (Homo sapiens)

>  <MEASUREMENT_NAME>
inhibition

>  <EXPERIMENTAL_RESULT>
8.17

$$$$
>  <COMPOUND>
c1ccc(CN2CCCN(c3ccc4c(c3)CCN(Cc3ccc(-c5ncc[nH]5)cc3)CC4)CC2)cc1

>  <TARGET>
Solute carrier family 2, facilitated glucose transporter member 1 (Homo sapiens)

>  <MEASUREMENT_NAME>
inhibition

>  <EXPERIMENTAL_RESULT>
2.8

$$$$

# lookup: Cc1ccc(C2CC(=O)CC(c3ccccn3)C2[N+](=O)[O-])cc1 (stereo not drawn) on Solute carrier family 2, facilitated glucose transporter member 1 (Homo sapiens), inhibition = -0.44

# lookup: COc1ccnc(NCCCNCc2cn(S(=O)(=O)c3ccccc3)c3ccccc23)c1 on Solute carrier family 2, facilitated glucose transporter member 1 (Homo sapiens), inhibition = 2.74

# lookup: CCCCCCCCN1CCCN(C(=O)c2cccc(NC(=O)Nc3ccc4ccccc4c3)c2)CC1 on Solute carrier family 2, facilitated glucose transporter member 1 (Homo sapiens), inhibition = 0.2

# lookup: CC(C)CCN1CCCN(Cc2cccc(NC(=O)c3cc4ccccc4s3)c2)CC1 on Solute carrier family 2, facilitated glucose transporter member 1 (Homo sapiens), inhibition = -0.92

# lookup: CCCNCc1ccc(-c2ccc(CN(CCOC)C(=O)[C@H]3CCCO3)cc2)nc1 on Solute carrier family 2, facilitated glucose transporter member 1 (Homo sapiens), inhibition = 4.56
